Here, each record is paired with measured MIC data.
Test system: intracellular S. aureus NRS384 in THP-1 macrophages
Assay: Intracellular killing assay 2 (rifamycin analogs, S. aureus in THP-1 macrophages)
Format: cell-based, Staphylococcus aureus
Settings: Staphylococcus aureus, NRS384, 2 h; lowest concentration giving intracellular S. aureus below limit of detection (50 cfu/mL) in THP-1 macrophages; median of at least two experiments; read-out: S. aureus Intracellular killing MIC
State the answer as a number, implicitly in µM.

Query string: Consider the compound shown here: CO[C@H]1/C=C/O[C@@]2(C)Oc3c(C)c(O)c4c(=O)c(c5oc6cc(OC7CCN(C)CC7)cc(O)c6nc-5c4c3C2=O)NC(=O)/C(C)=C\C=C\[C@H](C)[C@H](O)[C@@H](C)[C@@H](O)[C@@H](C)[C@H](OC(C)=O)[C@@H]1C What is its recorded MIC?
Result string: 0.2

Next up:
Query string: Consider the compound shown here: CO[C@H]1/C=C/O[C@@]2(C)Oc3c(C)c(O)c4c(=O)c(c5oc6cc(OCC7CCN(C)C7)cc(O)c6nc-5c4c3C2=O)NC(=O)/C(C)=C\C=C\[C@H](C)[C@H](O)[C@@H](C)[C@@H](O)[C@@H](C)[C@H](OC(C)=O)[C@@H]1C (some centres unmarked) [Analog 29a] What is its recorded MIC?
Result string: 0.04

###

System: intracellular S. aureus NRS384 in THP-1 macrophages
Assay: Intracellular killing assay 2 (rifamycin analogs, S. aureus in THP-1 macrophages)
Format: cell-based, Staphylococcus aureus
Conditions: Staphylococcus aureus, NRS384, 2 h; lowest concentration giving intracellular S. aureus below limit of detection (50 cfu/mL) in THP-1 macrophages; median of at least two experiments; read-out: S. aureus Intracellular killing MIC
Method: THP-1 monocytic cell line was grown in media (RMPI+10% FBS+1% Penicillin/Streptomycin), then seeded at a density of 1e5 cells/well in a 96 well plate and differentiated into macrophages for three days prior to infection using 200 nM PMA. An overnight culture of S. aureus NRS384 was grown in RPMI, washed twice with PBS and resuspended at 1e7 cfu/mL in PBS. […]
Quantity: MIC (µM)
State the answer as a number, implicitly in µM.

# example entries with known answers
Query string: Consider the molecule shown here: CO[C@H]1/C=C/O[C@@]2(C)Oc3c(C)c(O)c4c(=O)c(c5oc6cc(OCCN7CCOCC7)cc(O)c6nc-5c4c3C2=O)NC(=O)/C(C)=C\C=C\[C@H](C)[C@H](O)[C@@H](C)[C@@H](O)[C@@H](C)[C@H](OC(C)=O)[C@@H]1C [Analog 29g] What is its recorded MIC?
Result string: 0.2

Query string: Consider the molecule shown here: CO[C@H]1/C=C/O[C@@]2(C)Oc3c(C)c(O)c4c(=O)c(c5oc6cc(OCC7CCN(C)CC7)cc(O)c6nc-5c4c3C2=O)NC(=O)/C(C)=C\C=C\[C@H](C)[C@H](O)[C@@H](C)[C@@H](O)[C@@H](C)[C@H](OC(C)=O)[C@@H]1C [Analog 29b] What is its recorded MIC?
Result string: 0.04

Query string: Consider the molecule shown here: CO[C@H]1/C=C/O[C@@]2(C)Oc3c(C)c(O)c4c(=O)c(c5oc6cc(OCC7CCCN(C)C7)ccc6nc-5c4c3C2=O)NC(=O)/C(C)=C\C=C\[C@H](C)[C@H](O)[C@@H](C)[C@@H](O)[C@@H](C)[C@H](OC(C)=O)[C@@H]1C (stereo partly shown) [Analog 16f] What is its recorded MIC?
Result string: 1

Next up:
Query string: Consider the molecule shown here: CO[C@H]1/C=C/O[C@@]2(C)Oc3c(C)c(O)c4c(=O)c(c5oc6cc(OCCOCCN(C)C)ccc6nc-5c4c3C2=O)NC(=O)/C(C)=C\C=C\[C@H](C)[C@H](O)[C@@H](C)[C@@H](O)[C@@H](C)[C@H](OC(C)=O)[C@@H]1C [Analog 16s] What is its recorded MIC?
Result string: 1

###

Test system: intracellular S. aureus NRS384 in THP-1 macrophages
Assay: Intracellular killing assay 2 (rifamycin analogs, S. aureus in THP-1 macrophages)
Type: cell-based, Staphylococcus aureus
Conditions: Staphylococcus aureus, NRS384, 2 h; lowest concentration giving intracellular S. aureus below limit of detection (50 cfu/mL) in THP-1 macrophages; median of at least two experiments; read-out: S. aureus Intracellular killing MIC
Quantity: MIC

# example entries with known answers
Query string: Consider the molecule shown here: CO[C@H]1/C=C/O[C@@]2(C)Oc3c(C)c(O)c4c(=O)c(c5oc6cc(OCCN7CCOCC7)ccc6nc-5c4c3C2=O)NC(=O)/C(C)=C\C=C\[C@H](C)[C@H](O)[C@@H](C)[C@@H](O)[C@@H](C)[C@H](OC(C)=O)[C@@H]1C [Analog 16i] What is its recorded MIC?
Result string: 1 µM

Query string: Consider the molecule shown here: CO[C@H]1/C=C/O[C@@]2(C)Oc3c(C)c(O)c4c(=O)c(c5oc6cc(OCc7ccccc7CN(C)C)ccc6nc-5c4c3C2=O)NC(=O)/C(C)=C\C=C\[C@H](C)[C@H](O)[C@@H](C)[C@@H](O)[C@@H](C)[C@H](OC(C)=O)[C@@H]1C [Analog 16w] What is its recorded MIC?
Result string: > 1 µM

Query string: Consider the molecule shown here: CO[C@H]1/C=C/O[C@@]2(C)Oc3c(C)c(O)c4c(=O)c(c5oc6cc(O)cc(F)c6nc-5c4c3C2=O)NC(=O)/C(C)=C\C=C\[C@H](C)[C@H](O)[C@@H](C)[C@@H](O)[C@@H](C)[C@H](OC(C)=O)[C@@H]1C [Analog 55a] What is its recorded MIC?
Result string: > 1 µM

New cases:
Query string: Consider the molecule shown here: CO[C@H]1/C=C/O[C@@]2(C)Oc3c(C)c(O)c4c(=O)c(c5oc6cc(OCCN7CCCCCC7)ccc6nc-5c4c3C2=O)NC(=O)/C(C)=C\C=C\[C@H](C)[C@H](O)[C@@H](C)[C@@H](O)[C@@H](C)[C@H](OC(C)=O)[C@@H]1C [Analog 16n] What is its recorded MIC?
Result string: 1 µM

###

Tested on: intracellular S. aureus NRS384 in THP-1 macrophages
Experiment: Intracellular killing assay 2 (rifamycin analogs, S. aureus in THP-1 macrophages)
Type: cell-based, Staphylococcus aureus
Conditions: Staphylococcus aureus, NRS384, 2 h; lowest concentration giving intracellular S. aureus below limit of detection (50 cfu/mL) in THP-1 macrophages; median of at least two experiments; read-out: S. aureus Intracellular killing MIC
Quantity: MIC

Query string: Consider the compound shown here: CO[C@H]1/C=C/O[C@@]2(C)Oc3c(C)c(O)c4c(=O)c(c5oc6cc(OCCN(C)C)cc(O)c6nc-5c4c3C2=O)NC(=O)/C(C)=C\C=C\[C@H](C)[C@H](O)[C@@H](C)[C@@H](O)[C@@H](C)[C@H](OC(C)=O)[C@@H]1C What is its recorded MIC?
Result string: 0.04 µM

New cases:
Query string: Consider the compound shown here: CO[C@H]1/C=C/O[C@@]2(C)Oc3c(C)c(O)c4c(=O)c(c5oc6cc(OCCN(C)c7ccccn7)ccc6nc-5c4c3C2=O)NC(=O)/C(C)=C\C=C\[C@H](C)[C@H](O)[C@@H](C)[C@@H](O)[C@@H](C)[C@H](OC(C)=O)[C@@H]1C [Analog 16v] What is its recorded MIC?
Result string: 1 µM

###

Tested on: intracellular S. aureus NRS384 in THP-1 macrophages
Assay: Intracellular killing assay 2 (rifamycin analogs, S. aureus in THP-1 macrophages)
Assay type: cell-based, Staphylococcus aureus
Settings: Staphylococcus aureus, NRS384, 2 h; lowest concentration giving intracellular S. aureus below limit of detection (50 cfu/mL) in THP-1 macrophages; median of at least two experiments; read-out: S. aureus Intracellular killing MIC
Here, each record is paired with measured MIC data.

# example entries with known answers
Query string: Consider the compound shown here: CO[C@H]1/C=C/O[C@@]2(C)Oc3c(C)c(O)c4c(=O)c(c5oc6cc(OCCN7CCCCC7)ccc6nc-5c4c3C2=O)NC(=O)/C(C)=C\C=C\[C@H](C)[C@H](O)[C@@H](C)[C@@H](O)[C@@H](C)[C@H](OC(C)=O)[C@@H]1C [Analog 16m] What is its recorded MIC?
Result string: 1 µM

Query string: Consider the compound shown here: CO[C@H]1/C=C/O[C@@]2(C)Oc3c(C)c(O)c4c(=O)c(c5oc6cc(C#CCN(C)C)ccc6nc-5c4c3C2=O)NC(=O)/C(C)=C\C=C\[C@H](C)[C@H](O)[C@@H](C)[C@@H](O)[C@@H](C)[C@H](OC(C)=O)[C@@H]1C What is its recorded MIC?
Result string: > 1 µM

Query string: Consider the compound shown here: CO[C@H]1/C=C/O[C@@]2(C)Oc3c(C)c(O)c4c(=O)c(c5oc6cc(OCCCCN(C)C)ccc6nc-5c4c3C2=O)NC(=O)/C(C)=C\C=C\[C@H](C)[C@H](O)[C@@H](C)[C@@H](O)[C@@H](C)[C@H](OC(C)=O)[C@@H]1C [Analog 16p] What is its recorded MIC?
Result string: 1 µM

Next up:
Query string: Consider the compound shown here: CO[C@H]1/C=C/O[C@@]2(C)Oc3c(C)c(O)c4c(=O)c(c5oc6cc(CCCN(C)C)ccc6nc-5c4c3C2=O)NC(=O)/C(C)=C\C=C\[C@H](C)[C@H](O)[C@@H](C)[C@@H](O)[C@@H](C)[C@H](OC(C)=O)[C@@H]1C What is its recorded MIC?
Result string: > 1 µM
